In this section we review reported binding signal values for a set of sequences.
Target: GST-Dm-Relish (Drosophila melanogaster, UniProt Q94527 99-473)
Sequence: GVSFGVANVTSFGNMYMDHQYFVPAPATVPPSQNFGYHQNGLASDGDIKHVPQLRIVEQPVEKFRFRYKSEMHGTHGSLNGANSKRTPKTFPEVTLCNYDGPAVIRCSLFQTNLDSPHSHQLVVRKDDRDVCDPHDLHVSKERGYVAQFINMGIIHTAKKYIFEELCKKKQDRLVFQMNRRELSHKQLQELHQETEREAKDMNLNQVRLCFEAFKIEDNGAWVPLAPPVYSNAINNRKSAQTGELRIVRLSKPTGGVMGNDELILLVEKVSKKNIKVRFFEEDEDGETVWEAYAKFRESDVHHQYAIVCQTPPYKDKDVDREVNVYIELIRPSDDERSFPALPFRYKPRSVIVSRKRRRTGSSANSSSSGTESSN
Experiment: protein-binding microarray (PBM); PBM: ~300 nM protein, 6 mM HEPES pH 7.8, 80 mM KCl, 0.5 mM EDTA, 0.5 mM EGTA, 6% glycerol, 35 ng/ul poly-dIdC, 1% milk, 1 h, room temperature; high values mean tight binding
Details: dsDNA, one strand shown
Supply the numeric figure in z-score, leaving out any unit text.

Record excerpt, results attached:
CCGATTAACATCAGGGATTTCCATGATGTTAATCGGGTCTTGATTCGCTTGACGCTGCTG; 7.94
CCGATTAACATCAGGAATATACATGATGTTAATCGGGTCTTGATTCGCTTGACGCTGCTG; 2.59
CCGATTAACATCAGGGGGGTTACTGATGTTAATCGGGTCTTGATTCGCTTGACGCTGCTG; 8
CCGATTAACATCAGCAATCCCCCTGATGTTAATCGGGTCTTGATTCGCTTGACGCTGCTG; 5.79
CCGATTAACATCAAAAACTCCCATGATGTTAATCGGGTCTTGATTCGCTTGACGCTGCTG; 5.66
CCGATTAACATCAGGGAAACTTATGATGTTAATCGGGTCTTGATTCGCTTGACGCTGCTG; 2.25
CCGATTAACATCAGGGAAACCCATGATGTTAATCGGGTCTTGATTCGCTTGACGCTGCTG; 8.17
CCGATTAACATCAGGGGATAACCTGATGTTAATCGGGTCTTGATTCGCTTGACGCTGCTG; 7.51

Lab note: next sequence to report on.
I am curious: what binding signal value has been reported for CCGATTAACATCACGGACTTTCCTGATGTTAATCGGGTCTTGATTCGCTTGACGCTGCTG ?
2.95

###

target: GST-Hu-p50 (Homo sapiens, UniProt P19838 7-356); experiment: protein-binding microarray (PBM); PBM: ~300 nM protein, 6 mM HEPES pH 7.8, 80 mM KCl, 0.5 mM EDTA, 0.5 mM EGTA, 6% glycerol, 35 ng/ul poly-dIdC, 1% milk, 1 h, room temperature; high values mean tight binding; details: dsDNA, one strand shown
Sequence (P19838 7-356): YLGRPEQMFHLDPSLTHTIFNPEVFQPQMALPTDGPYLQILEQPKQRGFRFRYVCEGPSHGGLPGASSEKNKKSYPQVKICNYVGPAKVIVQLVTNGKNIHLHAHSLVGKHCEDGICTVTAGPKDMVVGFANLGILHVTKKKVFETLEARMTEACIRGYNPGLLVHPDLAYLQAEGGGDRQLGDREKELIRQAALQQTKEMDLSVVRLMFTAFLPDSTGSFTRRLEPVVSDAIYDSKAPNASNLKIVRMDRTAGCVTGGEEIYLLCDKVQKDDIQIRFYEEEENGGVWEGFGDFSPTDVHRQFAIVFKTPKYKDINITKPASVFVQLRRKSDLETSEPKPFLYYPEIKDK
test-readout: binding signal (z-score)
Supply the numeric figure in z-score, leaving out any unit text.

Record excerpt, results attached:
CCGATTAACATCATAATGGGAAATGATGTTAATCGGGTCTTGATTCGCTTGACGCTGCTG; 2.18
CCGATTAACATCAGGGAACCCCCTGATGTTAATCGGGTCTTGATTCGCTTGACGCTGCTG; 7.62
CCGATTAACATCAGTCCCACAGATGATGTTAATCGGGTCTTGATTCGCTTGACGCTGCTG; 2.52
CCGATTAACATCAGGGGGAGAACTGATGTTAATCGGGTCTTGATTCGCTTGACGCTGCTG; 5.85
CCGATTAACATCAAAAATTCCCTTGATGTTAATCGGGTCTTGATTCGCTTGACGCTGCTG; 6.22

Record lookup: for GST-Hu-p50 (Homo sapiens, UniProt P19838 7-356), what binding signal belongs to CCGATTAACATCAAGGAAGTCCCTGATGTTAATCGGGTCTTGATTCGCTTGACGCTGCTG ?
4.82

Please answer likewise for CCGATTAACATCAGGGGAATCTATGATGTTAATCGGGTCTTGATTCGCTTGACGCTGCTG
6.51

Please answer likewise for CCGATTAACATCACGGGGATTTATGATGTTAATCGGGTCTTGATTCGCTTGACGCTGCTG
6.63

Please answer likewise for CCGATTAACATCAAGTCCCCCCCTGATGTTAATCGGGTCTTGATTCGCTTGACGCTGCTG
4.23

Please answer likewise for CCGATTAACATCAACAATTTCCCTGATGTTAATCGGGTCTTGATTCGCTTGACGCTGCTG
4.08

Please answer likewise for CCGATTAACATCACGGAATTTCCTGATGTTAATCGGGTCTTGATTCGCTTGACGCTGCTG
1.38

Please answer likewise for CCGATTAACATCACCTTAGGTTTTGATGTTAATCGGGTCTTGATTCGCTTGACGCTGCTG
1.04

###

Biological target: GST-Aq-NF-kB (Amphimedon queenslandica, UniProt A9Y5G7 2-389)
Sequence: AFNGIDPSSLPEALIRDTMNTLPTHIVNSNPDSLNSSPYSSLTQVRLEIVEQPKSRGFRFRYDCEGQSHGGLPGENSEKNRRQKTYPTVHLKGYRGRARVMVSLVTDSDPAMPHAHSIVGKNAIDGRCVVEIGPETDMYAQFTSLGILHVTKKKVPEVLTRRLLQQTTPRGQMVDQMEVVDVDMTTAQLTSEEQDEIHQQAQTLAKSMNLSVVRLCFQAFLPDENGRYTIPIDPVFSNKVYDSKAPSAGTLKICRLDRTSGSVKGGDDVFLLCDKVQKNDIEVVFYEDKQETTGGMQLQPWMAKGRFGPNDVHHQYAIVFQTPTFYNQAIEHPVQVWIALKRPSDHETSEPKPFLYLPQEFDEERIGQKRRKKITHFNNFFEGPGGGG
Experiment: protein-binding microarray (PBM); PBM: ~300 nM protein, 6 mM HEPES pH 7.8, 80 mM KCl, 0.5 mM EDTA, 0.5 mM EGTA, 6% glycerol, 35 ng/ul poly-dIdC, 1% milk, 1 h, room temperature; high values mean tight binding
Settings: dsDNA, one strand shown
# strict inequality: binding signal < 4 z-score yields criterion met, everything else yields criterion not met

CCGATTAACATCAGGGGGATCCATGATGTTAATCGGGTCTTGATTCGCTTGACGCTGCTG; criterion not met

Input CCGATTAACATCAACGTATTCCCTGATGTTAATCGGGTCTTGATTCGCTTGACGCTGCTG ; condition: binding signal strictly below 4 z-score. Does it hold?
criterion met

Please answer likewise for CCGATTAACATCAGGGAAATACCTGATGTTAATCGGGTCTTGATTCGCTTGACGCTGCTG
criterion not met

Please answer likewise for CCGATTAACATCAGGAAGGTCCCTGATGTTAATCGGGTCTTGATTCGCTTGACGCTGCTG
criterion not met

Please answer likewise for CCGATTAACATCAAATACTCCCCTGATGTTAATCGGGTCTTGATTCGCTTGACGCTGCTG
criterion not met

Please answer likewise for CCGATTAACATCAGGTATTTTTATGATGTTAATCGGGTCTTGATTCGCTTGACGCTGCTG
criterion met

Please answer likewise for CCGATTAACATCAGGGACTTTAATGATGTTAATCGGGTCTTGATTCGCTTGACGCTGCTG
criterion not met

Please answer likewise for CCGATTAACATCACCACCCCCCCTGATGTTAATCGGGTCTTGATTCGCTTGACGCTGCTG
criterion met

Please answer likewise for CCGATTAACATCAATTTTCCCCATGATGTTAATCGGGTCTTGATTCGCTTGACGCTGCTG
criterion not met

Please answer likewise for CCGATTAACATCAACCAATCCCCTGATGTTAATCGGGTCTTGATTCGCTTGACGCTGCTG
criterion met

Please answer likewise for CCGATTAACATCACGGCATTTCCTGATGTTAATCGGGTCTTGATTCGCTTGACGCTGCTG
criterion met

Please answer likewise for CCGATTAACATCAGGGGGGTAACTGATGTTAATCGGGTCTTGATTCGCTTGACGCTGCTG
criterion not met

###

target: GST-Hu-p50 (Homo sapiens, UniProt P19838 7-356); assay: protein-binding microarray (PBM); PBM: ~300 nM protein, 6 mM HEPES pH 7.8, 80 mM KCl, 0.5 mM EDTA, 0.5 mM EGTA, 6% glycerol, 35 ng/ul poly-dIdC, 1% milk, 1 h, room temperature; Ap Aiptasia and Nv Nematostella (sea anemones) / Co Capsaspora / Aq Amphimedon (sponge) / Dm Drosophila / Hu human; RHD is the Rel homology domain; high values mean tight binding; details: dsDNA, one strand shown
// map binding signal to label using low interval: < 3 z-score; middle interval: ≥ 3 z-score and < 6 z-score; high interval: ≥ 6 z-score

CCGATTAACATCAGAAACTCCCCTGATGTTAATCGGGTCTTGATTCGCTTGACGCTGCTG; high interval
CCGATTAACATCAGGGTTTTACCTGATGTTAATCGGGTCTTGATTCGCTTGACGCTGCTG; middle interval
CCGATTAACATCAGGGGAGTTACTGATGTTAATCGGGTCTTGATTCGCTTGACGCTGCTG; middle interval

Assign a category based on measured binding signal for CCGATTAACATCAATTTCCCCCATGATGTTAATCGGGTCTTGATTCGCTTGACGCTGCTG and give only the class name.
high interval

Please answer likewise for CCGATTAACATCAGGGTTTTTAGTGATGTTAATCGGGTCTTGATTCGCTTGACGCTGCTG
low interval

Please answer likewise for CCGATTAACATCAATCTCCCCCCTGATGTTAATCGGGTCTTGATTCGCTTGACGCTGCTG
high interval

Please answer likewise for CCGATTAACATCAAGAATTTTCCTGATGTTAATCGGGTCTTGATTCGCTTGACGCTGCTG
low interval

Please answer likewise for CCGATTAACATCAGGGGTACCCCTGATGTTAATCGGGTCTTGATTCGCTTGACGCTGCTG
middle interval
